assay: total protein half-life in vivo (active degradation + dilution); higher = more stable protein
condition-description: E. coli NCM3722 delta-clpP; growth: N-lim chemostat; doubling time 6 h
observable: total protein half-life in vivo (h)
Write it as a number; the unit h goes unstated.

Completed entries (count: 5):
MALLEICCYSMECALTAQQNGADRVELCAAPKEGGLTPSLGVLKSVRQRVTIPVHPIIRPRGGDFCYSDGEFAAILEDVRTVRELGFPGLVTGVLDVDGNVDMPRMEKIMAAAGPLAVTFHRAFDMCANPLYTLNNLAELGIARVLTSGQKSDALQGLSKIMELIAHRDAPIIMAGAGVRAENLHHFLDAGVLEVHSSAGAWQASPMRYRNQGLSMSSDEHADEYSRYIVDGAAVAEMKGIIERHQAK ... 5.31
MSDVLRPYRDLFPQIGQRVMIDDSSVVIGDVRLADDVGIWPLVVIRGDVHYVQIGARTNIQDGSMLHVTHKSSYNPDGNPLTIGEDVTVGHKVMLHGCTIGNRVLVGMGSILLDGAIVEDDVMIGAGSLVPQNKRLESGYLYLGSPVKQIRPLSDEEKAGLRYSANNYVKWKDEYLDQGNQTQP [P0A9W9] ... 5.73
MRYSKLTMLIPCALLLSACTTVTPAYKDNGTRSGPCVEGGPDNVAQQFYDYRILHRSNDITALRPYLSDKLATLLSDASRDNNHRELLTNDPFSSRTTLPDSAHVASASTIPNRDARNIPLRVDLKQGDQGWQDEVLMIQEGQCWVIDDVRYLGGSVHATAGTLRQSIENR ... 5.61
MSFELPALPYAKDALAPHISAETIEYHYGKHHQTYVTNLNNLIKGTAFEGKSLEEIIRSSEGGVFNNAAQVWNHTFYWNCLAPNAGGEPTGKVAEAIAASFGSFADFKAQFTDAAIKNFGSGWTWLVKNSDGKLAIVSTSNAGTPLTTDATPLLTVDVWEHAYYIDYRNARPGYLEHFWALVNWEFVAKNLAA [P0AGD3] ... 5.56
MGGISIWQLLIIAVIVVLLFGTKKLGSIGSDLGASIKGFKKAMSDDEPKQDKTSQDADFTAKTIADKQADTNQEQAKTEDAKRHDKEQV ... 4.72

Lab note: next sequence to report on.
Incoming: Looking for the measured total protein half-life in vivo of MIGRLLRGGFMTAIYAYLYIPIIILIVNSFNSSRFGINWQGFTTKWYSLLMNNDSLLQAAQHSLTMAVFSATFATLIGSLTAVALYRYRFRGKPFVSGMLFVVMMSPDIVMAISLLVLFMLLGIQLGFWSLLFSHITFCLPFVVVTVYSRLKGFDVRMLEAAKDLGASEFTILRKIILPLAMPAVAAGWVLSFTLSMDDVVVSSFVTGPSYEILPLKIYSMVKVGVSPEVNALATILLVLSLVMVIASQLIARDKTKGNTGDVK [P0AFK6] , can you help?
Outgoing: 6.54

----------
assay: total protein half-life in vivo (active degradation + dilution); higher = more stable protein
condition-description: wild type E. coli NCM3722; growth: P-lim chemostat; doubling time 6 h
observable: total protein half-life in vivo
// unit must come after the numeric part

MSTLRLLISDSYDPWFNLAVEECIFRQMPATQRVLFLWRNADTVVIGRAQNPWKECNTRRMEEDNVRLARRSSGGGAVFHDLGNTCFTFMAGKPEYDKTISTSIVLNALNALGVSAEASGRNDLVVKTVEGDRKVSGSAYRETKDRGFHHGTLLLNADLSRLANYLNPDKKKLAAKGITSVRSRVTNLTELLPGITHEQVCEAITEAFFAHYGERVEAEIISPNKTPDLPNFAETFARQSSWEWNFGQAPAFSHLLDERFTWGGVELHFDVEKGHITRAQVFTDSLNPAPLEALAGRLQGCLYRADMLQQECEALLVDFPEQEKELRELSAWMAGAVR ... 5.78 h
MNTLTFLLSTVIELYTMVLLLRIWMQWAHCDFYNPFSQFVVKVTQPIIGPLRRVIPAMGPIDSASLLVAYILSFIKAIVLFKVVTFLPIIWIAGLLILLKTIGLLIFWVLLVMAIMSWVSQGRSPIEYVLIQLADPLLRPIRRLLPAMGGIDFSPMILVLLLYVINMGVAEVLQATGNMLLPGLWMAL ... 5.07 h

Incoming: Looking for the measured total protein half-life in vivo of "MTNNPLIPQSKLPQLGTTIFTQMSALAQQHQAINLSQGFPDFDGPRYLQERLAHHVAQGANQYAPMTGVQALREAIAQKTERLYGYQPDADSDITVTAGATEALYAAITALVRNGDEVICFDPSYDSYAPAIALSGGIVKRMALQPPHFRVDWQEFAALLSERTRLVILNTPHNPSATVWQQADFAALWQAIAGHEIFVISDEVYEHINFSQQGHASVLAHPQLRERAVAVSSFGKTYHMTGWKVGYCVAPAPISAEIRKVHQYLTFSVNTPAQLALADMLRAEPEHYLALPDFYRQKRDILVNALNESRLEILPCEGTYFLLVDYSAVSTLDDVEFCQWLTQEHGVAAIPLSVFCADPFPHKLIRLCFAKKESTLLAAAERLRQL" , can you help?
Outgoing: 5.33 h

----------
assay: total protein half-life in vivo (active degradation + dilution); higher = more stable protein
condition-description: E. coli NCM3722 delta-lon; growth: N-lim chemostat; doubling time 6 h
Recorded total protein half-life in vivo for the following sequences
Write it as a number; the unit h goes unstated.

Completed entries (count: 2):
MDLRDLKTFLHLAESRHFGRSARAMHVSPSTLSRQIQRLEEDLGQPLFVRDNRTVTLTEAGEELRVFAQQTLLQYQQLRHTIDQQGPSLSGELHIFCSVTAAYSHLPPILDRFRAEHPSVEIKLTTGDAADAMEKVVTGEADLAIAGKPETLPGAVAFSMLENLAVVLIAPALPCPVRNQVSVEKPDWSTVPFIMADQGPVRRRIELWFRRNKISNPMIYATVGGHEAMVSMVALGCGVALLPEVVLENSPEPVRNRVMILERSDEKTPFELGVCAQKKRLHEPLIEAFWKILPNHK ... 6.22
MSDVLRPYRDLFPQIGQRVMIDDSSVVIGDVRLADDVGIWPLVVIRGDVHYVQIGARTNIQDGSMLHVTHKSSYNPDGNPLTIGEDVTVGHKVMLHGCTIGNRVLVGMGSILLDGAIVEDDVMIGAGSLVPQNKRLESGYLYLGSPVKQIRPLSDEEKAGLRYSANNYVKWKDEYLDQGNQTQP [P0A9W9] ... 5.32

Lab note: next sequence to report on.
Incoming: Looking for the measured total protein half-life in vivo of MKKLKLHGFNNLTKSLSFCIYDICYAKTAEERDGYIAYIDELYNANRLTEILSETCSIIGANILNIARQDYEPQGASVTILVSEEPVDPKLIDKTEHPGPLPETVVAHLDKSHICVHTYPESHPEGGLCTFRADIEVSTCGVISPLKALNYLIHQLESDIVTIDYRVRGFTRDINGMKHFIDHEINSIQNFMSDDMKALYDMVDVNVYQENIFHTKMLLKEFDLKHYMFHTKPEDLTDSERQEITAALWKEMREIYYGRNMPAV [P0A7F6] , can you help?
Outgoing: 3.67

----------
assay: total protein half-life in vivo (active degradation + dilution); higher = more stable protein
condition-description: E. coli NCM3722 delta-hslV; growth: N-lim chemostat; doubling time 6 h
Recorded total protein half-life in vivo for the following sequences
Write it as a number; the unit h goes unstated.

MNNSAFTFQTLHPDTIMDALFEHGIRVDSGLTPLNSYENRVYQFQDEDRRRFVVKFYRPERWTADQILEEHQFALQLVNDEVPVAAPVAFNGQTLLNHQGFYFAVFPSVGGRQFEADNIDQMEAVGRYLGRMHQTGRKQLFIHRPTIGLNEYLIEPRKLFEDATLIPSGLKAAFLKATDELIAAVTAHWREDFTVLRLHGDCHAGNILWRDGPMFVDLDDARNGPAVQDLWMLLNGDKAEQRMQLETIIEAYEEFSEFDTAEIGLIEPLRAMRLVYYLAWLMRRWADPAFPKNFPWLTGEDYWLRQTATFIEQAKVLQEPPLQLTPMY [P0C0K3] ... 4.37

Incoming: Looking for the measured total protein half-life in vivo of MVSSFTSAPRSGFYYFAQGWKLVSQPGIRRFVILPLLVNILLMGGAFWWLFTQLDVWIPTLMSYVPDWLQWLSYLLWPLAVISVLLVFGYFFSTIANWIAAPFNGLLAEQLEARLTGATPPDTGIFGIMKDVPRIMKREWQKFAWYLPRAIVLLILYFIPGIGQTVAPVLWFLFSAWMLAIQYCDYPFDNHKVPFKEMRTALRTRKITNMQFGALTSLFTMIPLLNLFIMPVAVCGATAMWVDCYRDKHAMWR [P0A6J3] , can you help?
Outgoing: 5.84

Incoming: Looking for the measured total protein half-life in vivo of "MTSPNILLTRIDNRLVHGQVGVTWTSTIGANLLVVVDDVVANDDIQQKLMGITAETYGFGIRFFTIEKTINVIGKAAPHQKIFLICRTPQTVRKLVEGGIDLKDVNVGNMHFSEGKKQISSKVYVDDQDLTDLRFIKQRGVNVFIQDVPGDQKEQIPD" , can you help?
Outgoing: 4.08
